# key: entry, value: TEAD2 TAZ HTRF combined: Max % Inhibition
Target: TEAD2 TAZ (amino acids 13-57) (Homo sapiens)
Sequence (Q15562 217-447): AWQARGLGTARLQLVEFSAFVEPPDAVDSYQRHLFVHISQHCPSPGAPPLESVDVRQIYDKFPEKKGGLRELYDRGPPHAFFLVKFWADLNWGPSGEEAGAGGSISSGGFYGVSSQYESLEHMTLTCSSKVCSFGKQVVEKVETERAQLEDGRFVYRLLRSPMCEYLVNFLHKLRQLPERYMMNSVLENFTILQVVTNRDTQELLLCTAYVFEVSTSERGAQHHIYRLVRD
Assay: TEAD2-TAZ HTRF (TR-FRET) protein-protein interaction assay
Format: binding
Conditions: TEAD2, TAZ peptide, HTRF
ENDPOINT_LABEL: TEAD2 TAZ HTRF combined: Max % Inhibition

>>> result("Cc1nccnc1-c1nn2c(=O)cc(-c3ccc(C4CCCCC4)cc3)[nH]c2c1C(=O)N1C[C@H](CF)[C@@H]1C (single isomer, unassigned) [Isomer B, Example 41]")
"74.4%"
>>> result("Cc1ccnc(-c2nn3c(=O)cc(-c4ccc(C5CCCCC5)cc4)[nH]c3c2C(=O)N2CC(CF)C2)c1 [Compound 18]")
"55.5%"
>>> result("O=C(c1c(-c2ncccn2)nn2c(=O)cc(-c3ccc(C4CCCCC4)c(F)c3)[nH]c12)N1CC(CF)C1 [Compound 22]")
"57.5%"
>>> result("C[C@@H]1[C@H](CF)CN1C(=O)c1c(-c2cnccn2)nn2c(=O)cc(-c3ccc(C4CCCCC4)cc3)[nH]c12 (single isomer, unassigned) [Isomer B, Example 39]")
"37.0%"
>>> result("C[C@H]1[C@@H](CF)CN1C(=O)c1c(-c2ncccn2)nn2c(=O)cc(-c3ccc(CC4CCCC4)cc3)[nH]c12 (single isomer, unassigned) [Isomer A, Example 43]")
"63.0%"

----------
Biological target: TEAD3 YAP50-100 (Homo sapiens, UniProt Q99594)
Sequence (Q99594 173-435 limits assumed): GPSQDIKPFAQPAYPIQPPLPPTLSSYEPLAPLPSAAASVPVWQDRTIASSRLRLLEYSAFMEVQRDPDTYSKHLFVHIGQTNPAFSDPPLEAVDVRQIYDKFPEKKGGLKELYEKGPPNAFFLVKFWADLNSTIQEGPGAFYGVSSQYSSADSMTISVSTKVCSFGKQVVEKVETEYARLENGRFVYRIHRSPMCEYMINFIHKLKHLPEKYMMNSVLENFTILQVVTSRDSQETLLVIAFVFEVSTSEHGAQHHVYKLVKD
Assay: TEAD3-YAP HTRF (TR-FRET) protein-protein interaction assay
Conditions: TEAD3, YAP peptide 50-100, HTRF; read-out: TEAD3 YAP50-100 HTRF combined: EC50
Protocol: Purified His-tagged TEAD protein (YAP Binding Domain, amino acids 217-447) is pre-incubated with Europium labelled anti-His antibody tracer (Perkin Elmer Cat #AD0110). […] After 60 minutes, the plate is read on a plate reader using TR-FRET mode with wavelengths of 665 nm/615 nm. […] The potency of compounds as YAP:TEAD or TAZ:TEAD protein-protein interaction (PPi) inhibitors is determined by an IC50 or EC50 value generated using a non-linear four parameter curve fit.
pEC50: −log10 of the molar value.
This section presents molecules with their documented pEC50 values.
ENDPOINT_LABEL: pEC50

>>> quantitative_readout("CC(C)c1ccc(COc2cc(=O)n3nc(-c4cnccn4)c(C(=O)N4CC(CF)C4)c3[nH]2)cc1")
6.82
>>> quantitative_readout("Cc1nccnc1-c1nn2c(=O)cc(-c3ccc(C4CCCC4)cc3)[nH]c2c1C(=O)N1C[C@H](CF)[C@@H]1C")
6.96
>>> quantitative_readout("CC(CO)c1nn2c(=O)cc(-c3ccc(C4CCCCC4)cc3)[nH]c2c1C(=O)N1CC[C@@H](C#N)C1 (single isomer, unassigned) [Final product obtained using Enantiomer A from Step 4, Example 54]")
6.60
>>> quantitative_readout("Cc1nccnc1-c1nn2c(=O)cc(-c3ccc(C4(F)CCCCC4)cc3)[nH]c2c1C(=O)N1CC(CF)C1")
6.54
>>> quantitative_readout("O=C(c1c(-c2ccccc2)nn2c(=O)cc(-c3ccc(C4CCCCC4)cc3)[nH]c12)N1CC(CF)C1")
6.66
>>> quantitative_readout("O=C(c1c(-c2cnccn2)nn2c(=O)cc(-c3ccc(C4CCCCC4)cc3)[nH]c12)N1CC(CF)C1")
7.22

Value source: patent US12692269B2
